Provenance of the data: ChEMBL document CHEMBL3727350

assaySystem: Transient receptor potential cation channel subfamily M member 7 (Mus musculus) (UniProt Q923J1)
Sequence (Q923J1 whole entry): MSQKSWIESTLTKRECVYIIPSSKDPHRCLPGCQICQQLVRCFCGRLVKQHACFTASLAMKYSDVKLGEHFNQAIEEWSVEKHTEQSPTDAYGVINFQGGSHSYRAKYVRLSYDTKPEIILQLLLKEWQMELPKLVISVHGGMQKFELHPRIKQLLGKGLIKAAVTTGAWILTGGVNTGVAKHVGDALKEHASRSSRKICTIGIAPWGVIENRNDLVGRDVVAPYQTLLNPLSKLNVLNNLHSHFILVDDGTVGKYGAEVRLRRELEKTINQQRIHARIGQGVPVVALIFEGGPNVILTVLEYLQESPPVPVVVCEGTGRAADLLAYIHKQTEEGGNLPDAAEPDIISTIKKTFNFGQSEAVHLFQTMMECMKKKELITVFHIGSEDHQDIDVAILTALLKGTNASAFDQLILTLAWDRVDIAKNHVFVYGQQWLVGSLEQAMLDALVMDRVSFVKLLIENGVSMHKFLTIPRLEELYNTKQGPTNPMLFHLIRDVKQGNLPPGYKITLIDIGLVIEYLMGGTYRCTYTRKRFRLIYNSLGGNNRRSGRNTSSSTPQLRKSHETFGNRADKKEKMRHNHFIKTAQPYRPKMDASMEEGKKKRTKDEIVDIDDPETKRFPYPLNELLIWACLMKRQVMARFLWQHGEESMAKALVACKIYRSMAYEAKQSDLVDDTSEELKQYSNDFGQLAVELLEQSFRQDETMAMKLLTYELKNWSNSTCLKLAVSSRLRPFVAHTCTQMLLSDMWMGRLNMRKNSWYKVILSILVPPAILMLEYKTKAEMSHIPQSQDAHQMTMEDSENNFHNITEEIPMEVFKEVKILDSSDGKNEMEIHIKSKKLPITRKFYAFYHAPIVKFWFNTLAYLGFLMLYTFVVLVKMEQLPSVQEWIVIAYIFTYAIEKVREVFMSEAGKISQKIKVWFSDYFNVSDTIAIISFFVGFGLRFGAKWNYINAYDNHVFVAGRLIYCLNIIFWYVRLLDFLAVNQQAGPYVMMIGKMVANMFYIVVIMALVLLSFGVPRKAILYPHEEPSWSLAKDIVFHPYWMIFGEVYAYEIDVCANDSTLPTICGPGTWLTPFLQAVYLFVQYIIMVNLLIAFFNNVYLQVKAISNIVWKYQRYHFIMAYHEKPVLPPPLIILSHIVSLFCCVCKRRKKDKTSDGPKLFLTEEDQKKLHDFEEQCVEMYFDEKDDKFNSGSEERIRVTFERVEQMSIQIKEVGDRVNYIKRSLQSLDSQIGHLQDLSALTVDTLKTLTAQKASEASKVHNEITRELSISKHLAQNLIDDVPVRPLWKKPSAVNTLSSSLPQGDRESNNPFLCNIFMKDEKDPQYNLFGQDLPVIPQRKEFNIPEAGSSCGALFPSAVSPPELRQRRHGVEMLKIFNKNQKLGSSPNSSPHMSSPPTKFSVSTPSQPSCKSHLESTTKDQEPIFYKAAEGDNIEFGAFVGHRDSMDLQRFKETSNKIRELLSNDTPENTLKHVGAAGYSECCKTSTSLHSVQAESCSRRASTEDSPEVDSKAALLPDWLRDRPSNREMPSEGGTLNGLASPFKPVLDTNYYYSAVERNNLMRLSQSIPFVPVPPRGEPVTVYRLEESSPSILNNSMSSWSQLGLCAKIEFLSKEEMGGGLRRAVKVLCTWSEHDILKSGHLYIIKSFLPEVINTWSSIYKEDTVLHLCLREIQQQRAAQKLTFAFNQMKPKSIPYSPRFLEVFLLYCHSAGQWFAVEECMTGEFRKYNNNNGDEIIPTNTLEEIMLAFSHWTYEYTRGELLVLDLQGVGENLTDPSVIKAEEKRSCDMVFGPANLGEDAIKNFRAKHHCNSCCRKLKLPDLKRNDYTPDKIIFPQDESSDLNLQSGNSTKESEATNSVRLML
protocolText: Inhibition of Tet-induced Flag-tagged mouse TRPM7 expressed in HEK293 cells assessed as inhibition of channel-mediated cell death in presence of Mg2+ incubated for 24 to 48 hrs by propidium iodide uptake assay
Assay type: cell-based
Parameters: concentration or dose not given beside the values
details: concentration not given here

molecule | valueRelationSign | inhibition / %
CS(=O)(=NS(=O)(=O)c1ccc(Cl)cc1Cl)c1ccc(Cl)cc1 (configuration not stated) | < | 30
C/C(=N\NC1=NCCN1Cc1ccccc1)c1ccc(C)cc1 | = | 70
Cc1ccc(NC(=O)c2cccc3c2-c2ccccc2C3)cc1 | < | 30
CC(=O)Nc1ccc(S(=O)(=O)NNc2c(Cl)cncc2Cl)cc1Cl | = | 50
Cc1nc(-c2ccc(C(F)(F)F)cc2)nc(O)c1Cl | < | 30
CC(C)c1ccc(-c2cc(=O)c3ccccc3o2)cc1 | = | 80
Cc1cc(NS(=O)(=O)c2cccs2)[nH]n1 | < | 30
O=C(Nc1ccccc1)OCCSCc1ccc2nc(C(F)(F)F)ccc2c1 | = | 60
CCCCCc1ccc(S(=O)(=O)Nc2ccccc2C(=O)NCC2CC2)cc1 | = | 60
O=C(O)CSc1cc(C(F)(F)F)nc2ccccc12 | = | 30
O=C(Nc1ccc2ccccc2n1)c1ccc(Cl)cc1 | = | 50
O=C(/C=C/c1cccs1)NC(=S)Nc1ccccc1Cl | < | 30
